Recorded kon for the following binders
# target entity: T1, Recombinant human B7-H3 (human, UniProt Q5ZPR3 29-466, limits assumed)
# T1 construct: also called CD276; B7RP-2
# T1 sequence: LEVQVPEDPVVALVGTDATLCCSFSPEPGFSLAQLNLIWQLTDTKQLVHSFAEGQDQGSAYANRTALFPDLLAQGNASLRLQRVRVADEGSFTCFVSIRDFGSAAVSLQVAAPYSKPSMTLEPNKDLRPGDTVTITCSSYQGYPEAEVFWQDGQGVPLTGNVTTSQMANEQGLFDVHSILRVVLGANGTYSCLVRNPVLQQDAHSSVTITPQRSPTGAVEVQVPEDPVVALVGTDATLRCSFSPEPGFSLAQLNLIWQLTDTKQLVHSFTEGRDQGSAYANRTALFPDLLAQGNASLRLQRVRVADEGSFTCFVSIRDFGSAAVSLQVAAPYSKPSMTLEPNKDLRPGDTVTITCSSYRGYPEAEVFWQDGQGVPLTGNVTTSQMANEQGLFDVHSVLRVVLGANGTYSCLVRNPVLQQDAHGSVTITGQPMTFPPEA
# assay explanation: SPR (such as Biacore T200), against human B7-H3
# Protocol: The recombinantly expressed antibodies were used to assess binding activity to B7-H3 by conventional ELISA according to the known art. Recombinant human B7-H3 and cyno B7-H3 were coated onto ELISA plates to detect binding at serially diluted concentrations of the anti-B7-H3 antibody preparations. The binding affinity of select anti-B7-H3 antibodies were measured on a surface plasmon resonance (SPR) instrument, such as a Biacore T200™, against human B7-H3 (table 3) and cyno B7-H3 (table 4). […]
Enter your answer as a number in M⁻¹ s⁻¹; do not include the unit.

Answered cases to consult:
# binder, output unit, kon
data = [
    ("SCT-Da148 (antibody, V domains shown) VH: EVQLQQSGAELVKPGASVKLSCTASGVNIKDTYIHWVKQRPEQGLEWIGRIDPANGNRKYDPKFQGKATITADSSSNTAYLQLSSLTSEDTAVYYCARDGYYAPGYWGQGTTLTVSS VL: DIVMTQSQKFMSTSVGDRVSVTCKASQNVGTDVAWYQQKPGQSPKLLIYSASYRFSGVPDRFTGSGSGTDFSLAISNVQSEDLAEYFCQQYNSYPYTFGGGAKLEIK", "M⁻¹ s⁻¹", 366000),
    ("SCT-Da182 (antibody, V domains shown) VH: EVQLQQSGPELVKPGASMKISCKVSGFSFTGYTMNWVKQSHGKNLEWIGLINTYNGGTFYNQKFKAKATLTVDKSSSTAHMELLSLTSEDSAVYYCARSPGRYSMDYWGQGTSVTVSS VL: DIVLTQSPASLAVSLGQRATISCKASQSVDYNGYSYLNWYQQKPGQPPKLLIYPASNLESGIPARFSGSGSGTDFTLNIHPVEEEDAATYYCQQSKEDPYTFGGGTKLEIK", "M⁻¹ s⁻¹", 92700),
]

// next item, kon requested
Asked: Suppose we examine the binder SCT-Da333 (antibody, V domains shown) VH: QVQLQQSGPELVRPGVSVKISCKGSGYTFTDYAVHWVKQSHAKSLEWIGVINTYSGNTYYNLHFKGKATMTVDKSSSTAYMELARLTSEDSAIYYCARRRGSHRDAYFDYWGQGTTLTVSS VL: DIVMTQSHKFMSTSVGDRVSITCRASQDVSTAVAWYQQKPGQSPKLLIYSASYRYTGVPDRFTVSGSGTDFTFTISSVQAEDLAVYYCQQHYSTPWTFGGGTKLEIK ; what kon value has been reported?
Given back: 135000
